Hello, the source for this data is patent US7091201B2, in case you need it.

System: rat aortic rings (ETA receptors) (Rattus norvegicus, UniProt P26684)
Construct: from tissue; host or cells: thoracic aorta rings of adult Wistar rats, endothelium removed
Sequence (P26684 21-426): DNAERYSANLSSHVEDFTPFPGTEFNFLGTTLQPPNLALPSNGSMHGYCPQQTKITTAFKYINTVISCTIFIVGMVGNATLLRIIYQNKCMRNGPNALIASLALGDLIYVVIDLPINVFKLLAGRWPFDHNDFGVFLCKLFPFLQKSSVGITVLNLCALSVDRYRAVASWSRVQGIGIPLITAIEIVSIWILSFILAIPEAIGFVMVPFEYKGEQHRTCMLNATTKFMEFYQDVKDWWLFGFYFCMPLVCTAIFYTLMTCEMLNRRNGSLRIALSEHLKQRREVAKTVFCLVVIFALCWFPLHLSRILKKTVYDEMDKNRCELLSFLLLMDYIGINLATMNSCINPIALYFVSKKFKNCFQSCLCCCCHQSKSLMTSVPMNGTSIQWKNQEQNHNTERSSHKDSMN
Procedure summary: Inhibition of endothelin-1-induced contractions on isolated rat aortic rings
Format: cell-based
Measurement setup: read-out: pA2 (aortic rings) (converted)
Parameter log10(Kb): see the listing below.
Metric name: log10(Kb) (log10 of the value in nM)

Record smiles | Metric name | Obs value
Cc1ccc(-c2c(NS(=O)(=O)CCCc3ccccc3)ncnc2OCCOc2ncc(Br)cn2)cc1 | log10(Kb) | 1.24
COc1ccccc1Oc1c(NS(=O)(=O)CCc2ccccn2)nc(-c2ccncc2)nc1OCCOc1ncc(Br)cn1 | log10(Kb) | 1.17
COc1cnc(OCCOc2nc(-c3cnccn3)nc(NS(=O)(=O)CCc3ccccc3)c2Oc2ccccc2OC)nc1 | log10(Kb) | 1.33
COc1ccccc1Oc1c(NS(=O)(=O)CCc2ccccc2)nc(-c2ncccn2)nc1OCCOc1ncc(Br)cn1 | log10(Kb) | 0.62
Cc1ccc(-c2c(NS(=O)(=O)CCc3ccccc3)ncnc2OCCOc2ncc(C)cn2)cc1 | log10(Kb) | 1.57
Cc1ccc(-c2c(NS(=O)(=O)CCc3ccccc3)ncnc2OCCOc2ncc(Br)cn2)cc1 | log10(Kb) | 0.17
